These measurements were taken from ChEMBL document CHEMBL4428091.

logD overview
test: Lipophilicity, log D of the compound at pH 7.4; assay type: physicochemical; details: buffer
Respond numerically, and do not add a unit to the figure.

CN1CCN(c2ccc(/C=C/c3n[nH]c4cc(/C=C5/C(=O)Nc6ccccc65)ccc34)cn2)CC1    4.5
COc1ccc2c(c1)C(=Cc1ccc3c(-c4ccc(N5CCN(C)CC5)nc4)n[nH]c3c1)C(=O)N2    3.5

We next turn to a different compound, shown below.
If you can, please state the reported logD value of "COc1ccc2c(c1)[C@]1(C[C@H]1c1ccc3c(-c4ccc(N5CCN(CCO)CC5)cc4)n[nH]c3c1)C(=O)N2" .
4
